Origin of values: the supplement of paper PMC10126150

- Test system: ATP;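 note: ATP exposure 15 min at 22 °C before imaging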
- measurement protocol: switch fluorescence ratio, 500 uM ATP over buffer (Cy3 cluster intensity, sum of 5 cycles each) (fold (ratio)); higher = stronger signal-on switching upon ATP binding; sequences stand for … in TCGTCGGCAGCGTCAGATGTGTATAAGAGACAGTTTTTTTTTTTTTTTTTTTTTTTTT…TC
- test context: aptamer strand: ATP DNA aptamer (quencher-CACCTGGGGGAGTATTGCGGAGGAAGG + anchor), 100 nM annealed; ATP concentration: 500 uM
Reported switch fluorescence ratio is given for each of the following sequences.
// return a plain number; no unit text

Observe how each entry below is paired with its result.
# polymer sequence, observable, quantitative readout
data = [
    ("CTTCGTATCG", "switch fluorescence ratio", 1.04),
    ("TGCCGGGTCT", "switch fluorescence ratio", 0.988),
    ("TAAGTTATTT", "switch fluorescence ratio", 0.986),
    ("CAGCCTGGGC", "switch fluorescence ratio", 0.984),
    ("GTGGTAATTG", "switch fluorescence ratio", 0.972),
    ("TGGGAAAAAT", "switch fluorescence ratio", 0.994),
    ("CATCGGGTGG", "switch fluorescence ratio", 1.03),
    ("GGTATCTAGA", "switch fluorescence ratio", 1.02),
    ("GACGGGGGTG", "switch fluorescence ratio", 1.01),
]

Now consider a different sequence.
Given AGTGAGGGTA , state its recorded switch fluorescence ratio.
0.983
